For each record, write down the corresponding IC50.
target: PD-1/PD-L1 (Homo sapiens (Human), UniProt Q9NZQ7); assay: PD-1/PD-L1 Homogenous Time-Resolved Fluorescence (HTRF) binding assay; settings: PD-1-Ig / PD-L1-His HTRF; value given as range class; read-out: Range or IC50
Sequence (Q9NZQ7 other isoform, or with tags, fused parts or gaps): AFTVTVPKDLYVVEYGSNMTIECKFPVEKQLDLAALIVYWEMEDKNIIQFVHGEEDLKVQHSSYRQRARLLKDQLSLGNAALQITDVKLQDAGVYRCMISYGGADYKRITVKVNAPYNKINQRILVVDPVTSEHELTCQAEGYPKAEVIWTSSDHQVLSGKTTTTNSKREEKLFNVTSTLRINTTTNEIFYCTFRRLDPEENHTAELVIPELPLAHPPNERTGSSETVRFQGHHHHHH

Study these solved cases before continuing.
>  <Compound>
Cc1c(COc2cc(OCc3cncc(C#N)c3)c(CN3CCCC[C@H]3C(=O)O)cc2Cl)cccc1-c1ccc2ncc(C3=CC4CCC(C3)N4C(=O)OC(C)(C)C)nc2c1 (some centres unmarked)

>  <Value reported>
201 to 10000 nM

$$$$
>  <Compound>
COC(=O)C1CCC(c2nc3cc(-c4cccc(COc5cc(OCc6cncc(C#N)c6)c(CN6CCCC[C@H]6C(=O)O)cc5Cl)c4C)ccc3o2)CC1 (some centres unmarked)

>  <Value reported>
1 to 5 nM

$$$$
>  <Compound>
Cc1c(COc2cc(OCc3cncc(C#N)c3)c(CN[C@H](C(=O)O)C(C)C)cc2Cl)cccc1-c1ccc2oc(N3CCN(C)CC3)nc2c1

>  <Value reported>
1 to 5 nM

$$$$

Your task in this section: give IC50 for each listed record.
1. Cc1c(COc2cc(OCc3cncc(C#N)c3)c(CN3CCCC[C@H]3C(=O)O)cc2Cl)cccc1-c1ccc2oc(C3CC4CCC(C3)N4)nc2c1 (some centres unmarked)
2. Cc1c(COc2cc(OCc3cncc(C#N)c3)c(CN3CCCC[C@H]3C(=O)O)cc2Cl)cccc1-c1ccc2oc(C3CCN(c4ccccc4)CC3)nc2c1

1 to 5 nM
10.2 to 200 nM

----------
Biological target: PD-1/PD-L1 (Homo sapiens (Human), UniProt Q9NZQ7)
Assay: PD-1/PD-L1 Homogenous Time-Resolved Fluorescence (HTRF) binding assay
Conditions: PD-1-Ig / PD-L1-His HTRF; value given as range class; read-out: Range or IC50
Text: The ability of the compounds of formula (I) to bind to PD-L1 was investigated using a PD-1/PD-L1 Homogenous Time-Resolved Fluorescence (HTRF) binding assay. Homogenous Time-Resolved Fluorescence (HTRF) binding assay. The interaction of PD-1 and PD-L1 can be assessed using soluble, purified preparations of the extracellular domains of the two proteins. […]
pIC50: −log10 of the molar value.
Answer each item with its documented pIC50.

Provide reported pIC50 for each item, in the same order as listed.
1. Cc1c(COc2cc(OCc3cncc(C#N)c3)c(CN3CCCC[C@H]3C(=O)O)cc2Cl)cccc1-c1ccc2oc(C3CCN(C(C)C)CC3)nc2c1 [Example 1013]
2. Cc1c(COc2cc(OCc3cncc(C#N)c3)c(CN[C@@H](CO)C(=O)O)cc2Cl)cccc1-c1ccc2oc(N3CCN(C)CC3)nc2c1 [Example 2010]
3. Cc1c(COc2cc(OCc3cncc(C#N)c3)c(CN(C)C(CO)CO)cc2Cl)cccc1-c1ccc2oc(N3CCN(C)CC3)nc2c1 [Example 2014]

8.30 to 9.00
8.30 to 9.00
8.30 to 9.00

----------
target: PD-1/PD-L1 (Homo sapiens (Human), UniProt Q9NZQ7); test: PD-1/PD-L1 Homogenous Time-Resolved Fluorescence (HTRF) binding assay; conditions: PD-1-Ig / PD-L1-His HTRF; value given as range class; read-out: Range or IC50
Can you tell me IC50 for the items I'm about to list?

Guide cases for IC50, answers given:
>  <Chemical string>
Cc1c(COc2cc(OCc3cncc(C#N)c3)c(CN3CCCC[C@H]3C(=O)O)cc2Cl)cccc1-c1ccc2oc(-c3ccncc3)nc2c1

>  <IC50>
1 to 5 nM

$$$$
>  <Chemical string>
Cc1c(COc2cc(OCc3cncc(C#N)c3)c(CN3CCCC[C@H]3C(=O)O)cc2Cl)cccc1-c1ccc2oc(C3CCN(C)CC3)nc2c1C

>  <IC50>
1 to 5 nM

$$$$
>  <Chemical string>
Cc1c(COc2cc(OCc3cncc(C#N)c3)c(CN3CCCC[C@H]3C(=O)O)cc2Cl)cccc1-c1ccc2oc(C3CCN(C4CC4)CC3)nc2c1

>  <IC50>
1 to 5 nM

$$$$
>  <Chemical string>
Cc1c(COc2cc(OCc3cncc(C#N)c3)c(C=O)cc2Cl)cccc1-c1ccc2oc(C3CCN(C)CC3)nc2c1

>  <IC50>
5.01 to 10.1 nM

$$$$
>  <Chemical string>
Cc1c(COc2cc(OCc3cncc(C#N)c3)c(CN[C@@](C)(CO)C(=O)O)cc2Cl)cccc1-c1ccc2oc(N3CCN(C)CC3)nc2c1

>  <IC50>
1 to 5 nM

$$$$

Any idea what its IC50 is? The compound is Cc1c(COc2cc(OCc3cncc(C#N)c3)c(CNC(C)(CO)CO)cc2Cl)cccc1-c1ccc2oc(N3CCN(C)CC3)nc2c1 0.18 to 0.99 nM

Numbers sourced from patent US10882844B2.
